Reported IC50 values for the following compounds.
Test: Inhibition of CK2 in mouse L-Wnt3a cells assessed as suppression of Wnt3a-mediated L S/L Super TOPFlash reporter gene transcription after 24 hrs
Details: L Wnt-3A
Numbers only; they are read as nM.

Known results for compounds:
>>> df
                         structure_notation  value_units  recorded_value
0  CC(=O)Nc1cc(Nc2cc(NC3CC3)n3ncc(C#N)c3n2)ccc1N(C)CCN(C)C           nM              75
1  CC(=O)Nc1cc(Nc2cc(NC3CC3)n3ncc(C#N)c3n2)ccc1N(C)CCCN(C)C           nM             730
2  CCN(CC)CCN(C)c1ccc(Nc2cc(NC3CC3)n3ncc(C#N)c3n2)cc1NC(C)=O           nM             390

So for CC(=O)Nc1cccc(Nc2cc(NC3CC3)n3ncc(C#N)c3n2)c1 , the logged IC50 turned out to be 600

Lab note: measured IC50 of CC(=O)Nc1cc(Nc2cc(NC3CC3)n3ncc(C#N)c3n2)ccc1N(C)CCN was 43

====

Overview of reported solubility at 24 h across a group of compounds:
Test: Aqueous solubility of the compound in phosphate buffer at pH 7.4 incubated for 24 hrs by LC/MS/MS method
Type: physicochemical
Please reply with the bare figure in µM and do not write the unit itself.

Consider the worked cases shown below.
In [3]: df
Out[3]:
                         structure_notation     outcome_measure  value_units  recorded_value
0  CC(=O)Nc1cc(Nc2cc(NC3CC3)n3ncc(C#N)c3n2)ccc1N1CCN(C)CC1  solubility at 24 h           µM             570
1  CC(=O)Nc1cc(Nc2cc(NC3CC3)n3ncc(C#N)c3n2)ccc1N1CC[C@@H](N)C1  solubility at 24 h           µM             812
2  CC(=O)Nc1cc(Nc2cc(NC3CC3)n3ncc(C#N)c3n2)ccc1N(C)C[C@H](C)N  solubility at 24 h           µM             895
3  CC(=O)Nc1cc(Nc2cc(NC3CC3)n3ncc(C#N)c3n2)ccc1N(C)CCN1CC(F)(F)C1  solubility at 24 h           µM             241
4  CC(=O)Nc1cc(Nc2cc(NC3CC3)n3ncc(C#N)c3n2)ccc1N1CCC[C@H](N)C1  solubility at 24 h           µM             704

Value of measured solubility at 24 h for the entry CC(=O)Nc1cc(Nc2cc(NC3CC3)n3ncc(C#N)c3n2)ccc1N1CC[C@H](N)C1 : 590

The reported solubility at 24 h of the compound CC(=O)Nc1cc(Nc2cc(NC3CC3)n3ncc(C#N)c3n2)ccc1N(C)C[C@@H](C)N was 825

So for CC(=O)Nc1cc(Nc2cc(NC3CC3)n3ncc(C#N)c3n2)ccc1N(C)CCN1CCOCC1 , the logged solubility at 24 h turned out to be 275

Lab note: measured solubility at 24 h of CC(=O)Nc1cc(Nc2cc(NC3CC3)n3ncc(C#N)c3n2)ccc1N(C)CCO was 2

Noted for CC(=O)Nc1cccc(Nc2cc(NC3CC3)n3ncc(C#N)c3n2)c1 : its solubility at 24 h reads 15
